# key: entry, value: pIC50
# target.under.test: Serine/threonine-protein kinase mTOR (Homo sapiens, UniProt P42345)
# protocol: Inhibition of mTOR (unknown origin) using U-Light-4E-BP1 peptide as a substrate in presence of ATP incubated for 45 mins by Lance ultra assay
pIC50: −log10 of the molar value.

# molecule, pIC50
rows = [
    ("NC(=O)[C@H]1CCCN1C(=O)c1ccc(NC(=O)Nc2ccc(-c3nc(N4CCOCC4)nc(N4CCOCC4)n3)cc2)cc1", 8.64),
    ("NC(=O)C1CCCCN1C(=O)c1ccc(NC(=O)Nc2ccc(-c3cc(N4CCOCC4)nc(N4CCOCC4)n3)cc2)cc1 (stereo unspecified)", 8.12),
    ("NC(=O)[C@H]1CCCN1C(=O)c1ccc(NC(=O)Nc2ccc(-c3cc(N4CCOCC4)nc(N4CCOCC4)n3)cc2)cc1", 8.14),
    ("NC(=O)C1CCCN(C(=O)c2ccc(NC(=O)Nc3ccc(-c4nc(N5CCOCC5)nc(N5CCOCC5)n4)cc3)cc2)C1 (stereo unspecified)", 8.68),
    ("NC(=O)[C@@H]1CCCN1C(=O)c1ccc(NC(=O)Nc2ccc(-c3cc(N4CCOCC4)nc(N4CCOCC4)n3)cc2)cc1", 8.13),
    ("O=C(Nc1ccc(C(=O)N2CCCC2C(=O)O)cc1)Nc1ccc(-c2nc(N3CCOCC3)nc(N3CCOCC3)n2)cc1 (stereo unspecified)", 8.43),
    ("C[C@H]1COCCN1c1ccnc(-c2ccc(NC(=O)Nc3ccc(C(=O)N4CCC[C@H]4C(N)=O)cc3)cc2)n1", 8.04),
    ("COC(=O)[C@@H]1CCCN1C(=O)c1ccc(NC(=O)Nc2ccc(-c3nc(N4CCOCC4)nc(N4CCOCC4)n3)cc2)cc1", 8.38),
    ("NC(=O)[C@@H]1C[C@@H]2C[C@@H]2N1C(=O)c1ccc(NC(=O)Nc2ccc(-c3nc(N4CCOCC4)nc(N4CCOCC4)n3)cc2)cc1", 8.70),
    ("COC(=O)[C@@H]1C[C@@H](O)CN1C(=O)c1ccc(NC(=O)Nc2ccc(-c3nc(N4CCOCC4)nc(N4CCOCC4)n3)cc2)cc1", 8.48),
    ("C[C@H]1COCCN1c1nc(-c2ccc(NC(=O)Nc3ccc(C(=O)N4CCC(C(N)=O)CC4)cc3)cc2)nc(N2CCOCC2)n1", 8.92),
]

---

# target.under.test: Phosphatidylinositol 4,5-bisphosphate 3-kinase catalytic subunit beta isoform (Homo sapiens)
# Sequence (P42338 whole entry, canonical isoform): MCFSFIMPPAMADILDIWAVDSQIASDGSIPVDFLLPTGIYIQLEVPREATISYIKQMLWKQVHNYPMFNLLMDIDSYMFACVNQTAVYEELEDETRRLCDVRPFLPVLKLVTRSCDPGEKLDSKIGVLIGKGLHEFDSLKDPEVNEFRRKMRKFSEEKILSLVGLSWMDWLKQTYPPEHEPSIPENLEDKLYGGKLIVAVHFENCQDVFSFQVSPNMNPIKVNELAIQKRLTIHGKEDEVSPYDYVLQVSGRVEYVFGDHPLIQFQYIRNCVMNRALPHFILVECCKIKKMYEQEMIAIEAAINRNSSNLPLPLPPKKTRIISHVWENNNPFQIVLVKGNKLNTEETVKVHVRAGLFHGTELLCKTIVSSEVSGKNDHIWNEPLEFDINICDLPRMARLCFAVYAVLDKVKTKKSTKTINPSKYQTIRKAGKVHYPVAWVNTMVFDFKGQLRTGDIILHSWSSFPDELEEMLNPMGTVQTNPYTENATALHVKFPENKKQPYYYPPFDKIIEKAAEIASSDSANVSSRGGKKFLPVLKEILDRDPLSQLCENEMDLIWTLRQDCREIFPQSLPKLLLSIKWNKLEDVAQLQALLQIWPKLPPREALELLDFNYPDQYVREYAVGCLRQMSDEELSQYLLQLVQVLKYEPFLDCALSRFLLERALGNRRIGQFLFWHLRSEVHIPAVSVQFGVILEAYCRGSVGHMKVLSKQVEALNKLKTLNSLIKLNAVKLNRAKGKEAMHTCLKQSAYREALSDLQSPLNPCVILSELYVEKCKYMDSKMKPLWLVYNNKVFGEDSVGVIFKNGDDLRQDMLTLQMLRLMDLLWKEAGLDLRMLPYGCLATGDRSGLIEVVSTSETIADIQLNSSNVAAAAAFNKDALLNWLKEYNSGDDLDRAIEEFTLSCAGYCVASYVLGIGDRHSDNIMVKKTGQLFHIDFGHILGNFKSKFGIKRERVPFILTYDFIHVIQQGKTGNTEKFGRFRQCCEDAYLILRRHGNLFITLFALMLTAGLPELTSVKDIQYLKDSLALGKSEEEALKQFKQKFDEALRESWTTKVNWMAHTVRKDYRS
# protocol: Inhibition of PI3Kbeta (unknown origin) using PIP2 as substrate in presence of ATP incubated for 60 mins by ADP-glo based luminescence assay
Checkbox rule: IC50 lower than 10 nM = True; IC50 not lower than 10 nM = False.

# molecule, label.class
measured = [
    ("NC(=O)[C@H]1CCCN1C(=O)c1ccc(NC(=O)Nc2ccc(-c3nc(N4CCOCC4)nc(N4CCOCC4)n3)cc2)cc1", "True"),
    ("NC(=O)[C@@H]1CC(O)CN1C(=O)c1ccc(NC(=O)Nc2ccc(-c3nc(N4CCOCC4)nc(N4CCOCC4)n3)cc2)cc1 (stereo partly specified)", "False"),
    ("C[C@H](NC(=O)c1ccc(NC(=O)Nc2ccc(-c3nc(N4CCOCC4)nc(N4CCOC[C@@H]4C)n3)cc2)cc1)C(N)=O", "False"),
    ("C[C@@H](NC(=O)c1ccc(NC(=O)Nc2ccc(-c3nc(N4CCOCC4)nc(N4CCOCC4)n3)cc2)cc1)C(N)=O", "True"),
    ("CN(C)[C@@H]1C[C@@H](C(N)=O)N(C(=O)c2ccc(NC(=O)Nc3ccc(-c4nc(N5CCOCC5)nc(N5CCOCC5)n4)cc3)cc2)C1", "False"),
    ("NC(=O)[C@@H]1CCCN1C(=O)c1ccc(NC(=O)Nc2ccc(-c3nc(N4CCOCC4)nc(N4CCOCC4)n3)cc2)cc1", "True"),
]
